test-name: Quantitative High-Throughput drug screen in 47 multiple myeloma cell lines against the NCATS MIPE library collection: XG6_PLB cell viability assay (AID 1919865); note: nearly all actives have a fitted effect of over 40% in size
experimental-conditions: XG6 myeloma viability, CellTiter-Glo ATP luminescence, 48 h; series mostly up to 45.8 µM
From the text: PI: Beverly A. Mock Ph.D. Laboratory of Cancer Biology and Genetics, Center for Cancer Research, National Cancer Institute, National Institute of Health, Bethesda, Maryland […] 5; Detector; 425V; Luminescence; Viewlux PerkinElmer. […] 1. […] Briefly, the corresponding myeloma cell lines were screened in 1,536-well plates with 500 cells, 5-uL per well for inhibition of cell viability (assessed by measuring ATP levels with CellTiterGlo). […]
Inconclusive results are not listed. The source made the active and inactive calls. Calls come from the whole dose curve; as a rule, active = well fitted cell-killing curve with a large enough effect; inconclusive = small, poorly fitted or top-dose-only effect, or effect the other way; inactive = no such curve, though single readings can be large or run the other way.
Possible outcomes: 1 (active), 0 (inactive)

> print(dat)
                               smiles.entry  class
1                  NC[C@H](O)c1ccc(O)c(O)c1      0
2   Fc1ccc(Cl)cc1-c1nc(Nc2ccncc2)c2nccnc2n1      1
3  CN(C)c1ccc(Nc2nc(N)n(C(=O)c3c(F)cccc3F)n2)cc1      1
4  Cc1ccnc(NS(=O)(=O)c2ccc(NC(=O)Nc3ccc(S(=O)(=O)Nc4nccc(C)n4)cc3)cc2)n1      1
5  O=C(c1cc(Cc2n[nH]c(=O)c3ccccc23)ccc1F)N1CCN(C(=O)C2CC2)CC1      1
6  Cc1cccc(-c2[nH]c(C(C)(C)C)nc2-c2ccc3nccnc3c2)n1      1
7  CC[C@H](Nc1ncnc2nc[nH]c12)c1nc2cccc(F)c2c(=O)n1-c1ccccc1      1
8  Cc1csc(NC(=O)c2sc3nc4c(c(C(F)(F)F)c3c2N)CCC4)n1      0

----------
test-name: qHTS assay for small molecule activators of the p53 signaling pathway (AID 651743); note: % of control where 0% means no effect
experimental-conditions: HCT-116 p53RE-bla, beta-lactamase FRET ratio, 16 h; stronger effect = higher value
Inconclusive results are not listed.
Readings of activation for the listed compounds
readout: activation (%)

> print(dat)
                                   compound     readout  quantitative.result
1                      O=NN(CCCl)C(=O)NCCCl  activation                 14.7
2  Cc1ccccc1C(OCCN(C)C)c1ccccc1 (stereo not given)  activation                -4.64
3       NS(=O)(=O)c1cc2c(cc1Cl)NC=NS2(=O)=O  activation                -2.13
4            Cc1[nH]c(=O)c(C#N)cc1-c1ccncc1  activation                -6.25
5              NC(N)=NC(=O)c1nc(Cl)c(N)nc1N  activation                 -2.4

----------
test-name: qHTS of pediatric cancer cell lines to identify multiple opportunities for drug repurposing: Confirmatory screen for RD cells (AID 1347124);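 note: cells exposed to compound for 48 h before viability readout; nearly all actives have a fitted effect of over 65% in size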
experimental-conditions: RD rhabdomyosarcoma cell viability; series mostly up to 45.9 µM
Inconclusive results are not listed. Active and inactive are the calls of the source. The call rests on the fitted dose curve; in most records, active means well fitted cell-killing curve with a large enough effect; inconclusive means small, poorly fitted or top-dose-only effect, or effect the other way; inactive means no such curve, though single readings can be large or run the other way.
Labels: active, inactive

> print(dat)
                               smiles.entry     class
1                               Cc1cn[nH]c1  inactive
2  CN1CCN(CCCN2c3ccccc3Sc3ccc(C(F)(F)F)cc32)CC1    active
3  CCCS(=O)(=O)Nc1ccc(F)c(C(=O)c2c[nH]c3ncc(-c4ccc(Cl)cc4)cc23)c1F  inactive
4     C[C@]1(c2nc3c(C(N)=O)cccc3[nH]2)CCCN1  inactive
5  Cc1c(CN2CCN(C(=O)C(C)C)CC2)sc2c(N3CCOCC3)nc(-c3cnc(N)nc3)nc12    active
6  O=C(c1cc(Cc2n[nH]c(=O)c3ccccc23)ccc1F)N1CCN(C(=O)C2CC2)CC1  inactive
7  CS(=O)(=O)c1ccc(C(=O)Nc2ccc(Cl)c(-c3ccccn3)c2)c(Cl)c1  inactive
8           NC(=O)c1ccc(I)c([N+](=O)[O-])c1  inactive

----------
test-name: Quantitative High-Throughput drug screen in 47 multiple myeloma cell lines against the NCATS MIPE library collection: MM1R_ATCC cell viability assay (AID 1918981); note: nearly all actives have a fitted effect of over 35% in size
experimental-conditions: MM1R multiple myeloma cells, CellTiter-Glo viability, 48 h; series mostly up to 45.8 µM
Results filed as inconclusive are left out. The source made the active and inactive calls. Calls come from the whole dose curve; as a rule, active = well fitted cell-killing curve with a large enough effect; inconclusive = small, poorly fitted or top-dose-only effect, or effect the other way; inactive = no such curve, though single readings can be large or run the other way.
Labels: yes = active, no = inactive

> print(dat)
                                    compound  class
 1  COc1ccccc1[C@H](c1cccc2ccccc12)[C@@](C)(C#N)C(=O)N1CCC(c2cccc(C(F)(F)F)c2)CC1    yes
 2   O=C(O)CCc1ccc(NCc2cccc(Oc3ccccc3)c2)cc1     no
 3  COc1cccc2cc(-c3nc(C4CCC(C(=O)O)CC4)n4ncnc(N)c34)[nH]c12 (stereo not given)    yes
 4  COc1nc(-c2ccc3c(c2)OCO3)n(-c2ccc(NC(=O)CSc3ccccc3)cc2)n1     no
 5  COc1ccc(-c2ccc3c(N4CCOCC4)nc(N4C[C@@H](C)O[C@@H](C)C4)nc3n2)cc1CO    yes
 6  Cc1ccccc1C(C(=O)NC1CCCC1)N(C(=O)Cn1cnc2ccccc21)c1cccc(F)c1 (stereo not given)     no
 7  NCCCC(N)(C(=O)O)C(F)F (stereo not given)     no
 8  COc1cc2nccc(Oc3ccc(NC(=O)NC4CC4)c(Cl)c3)c2cc1C(N)=O    yes
 9  CN(C)c1ccc(Nc2nc(N)n(C(=O)c3c(F)cccc3F)n2)cc1    yes
10  Cc1cc([C@@H](C)Nc2ccccc2C(=O)O)c2nc(N3CCOCC3)cc(=O)n2c1    yes

----------
test-name: qHTS of pediatric cancer cell lines to identify multiple opportunities for drug repurposing: Primary screen for BT-12 cells (AID 1347101); note: nearly all actives have a fitted effect of over 25% in size
experimental-conditions: BT-12 viability, CellTiter-Glo luminescence, 48 h; series mostly up to 57.3 µM
Results filed as inconclusive are left out. Calls of active or inactive are those of the source. The call rests on the fitted dose curve; in most records, active means well fitted cell-killing curve with a large enough effect; inconclusive means small, poorly fitted or top-dose-only effect; inactive means flat fitted curve, though single readings scatter.
Possible outcomes: yes for active, no for inactive

> print(dat)
                                    compound  class
 1                    CNC[C@H](O)c1cccc(O)c1     no
 2   O=C(O)CCc1ccc(NCc2cccc(Oc3ccccc3)c2)cc1     no
 3  COc1ccc(-c2oc3cc(OC)ccc3c2C(=O)c2ccc(C#N)cc2)cc1    yes
 4  CCc1cncnc1N1CCN(Cc2nc3ccc(C(F)(F)F)cc3[nH]2)CC1    yes
 5  CCOc1cc(N2CCC(O)CC2)ccc1Nc1ncc2c(n1)N(C)c1ccccc1C(=O)N2C    yes
 6  NCCCC(N)(C(=O)O)C(F)F (stereo unspecified)     no
 7  CCn1c(-c2nonc2N)nc2c(C#CC(C)(C)O)ncc(OC[C@H]3CCCNC3)c21     no
 8  Cc1cccc(-c2[nH]c(C(C)(C)C)nc2-c2ccc3nccnc3c2)n1    yes
 9  C[C@]12CCC(=O)C=C1CC[C@@H]1[C@@H]2[C@@H](O)C[C@@]2(C)[C@H]1CC[C@]2(O)C(=O)CO     no
10               c1ccc([C@H]2CN3CCSC3=N2)cc1     no
11  Cc1cnc(NC(=O)C2=C(O)c3ccccc3S(=O)(=O)N2C)s1     no

----------
test-name: Identifying Small Molecule Inhibitors of Pancreatic Cancer Stem Cells (SN12C, Adherent) (AID 1259358);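 note: cell survival measured after 48 h of compound exposure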
experimental-conditions: viability/growth inhibition; series mostly up to 46.1 µM
Inconclusive results are not listed. Calls of active or inactive are those of the source. Calls come from the whole dose curve; as a rule, active = well fitted cell-killing curve with a large enough effect; inconclusive = small, poorly fitted or top-dose-only effect; inactive = flat fitted curve, though single readings scatter.
Outcomes: active, inactive

> print(dat)
                                   compound     class
1  OC(CN1CCC(Cc2ccc(F)cc2)CC1)c1ccc(Cl)cc1 (stereo not given)  inactive
2  Nc1nccc(-c2ccc3noc(-c4ccc(Cl)cc4)c3c2)n1  inactive
3  CCC(C)N(C)C(=O)c1cc2ccccc2c(-c2ccccc2Cl)n1 (stereo not given)  inactive
4  CCOc1ccn(-c2ccc(F)cc2)c(=O)c1C(=O)Nc1ccc(Oc2ccnc(N)c2Cl)c(F)c1    active
5  OCCn1cc(-c2cnc3nnn(Cc4ccc5ncccc5c4)c3n2)cn1  inactive

----------
experimental-system: Papain (Carica papaya) (UniProt P00784)
Sequence (P00784 whole entry, looked up): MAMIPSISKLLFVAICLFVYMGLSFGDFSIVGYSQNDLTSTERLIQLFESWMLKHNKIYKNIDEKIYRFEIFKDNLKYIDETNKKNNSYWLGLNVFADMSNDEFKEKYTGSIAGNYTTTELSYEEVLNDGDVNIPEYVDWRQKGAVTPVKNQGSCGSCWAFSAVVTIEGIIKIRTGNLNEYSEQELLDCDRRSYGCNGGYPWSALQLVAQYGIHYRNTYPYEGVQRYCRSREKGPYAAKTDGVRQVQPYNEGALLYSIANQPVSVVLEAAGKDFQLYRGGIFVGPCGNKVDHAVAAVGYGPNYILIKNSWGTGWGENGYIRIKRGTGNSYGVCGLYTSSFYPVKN
test-name: Primary qHTS assay for inhibitors of the protease papain (AID 1645873);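 note: papain turnover of Z-FR-AMC read as the AMC fluorescence gain over 10 min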
experimental-conditions: papain Z-FR-AMC cleavage, AMC fluorescence; series mostly up to 49.8 µM
Records with an inconclusive call do not appear. Calls of active or inactive are those of the source. Calls follow the shape of the dose curve; as a rule, active = well fitted inhibition curve with a large enough effect; inconclusive = small, poorly fitted or top-dose-only effect; inactive = no such curve, though single readings can be large or run the other way.
Outcome codes: active, inactive

> print(dat)
                                    compound                      experimental.system     class
 1   Cn1cnc([N+](=O)[O-])c1Sc1ncnc2nc[nH]c12  Papain (Carica papaya) (UniProt P00784)  inactive
 2                            NC(=O)c1cnccn1  Papain (Carica papaya) (UniProt P00784)  inactive
 3  Cc1cccc(-c2[nH]c(C(C)(C)C)nc2-c2ccc3nccnc3c2)n1  Papain (Carica papaya) (UniProt P00784)  inactive
 4              NC(N)=NC(=O)c1nc(Cl)c(N)nc1N  Papain (Carica papaya) (UniProt P00784)    active
 5                           CCCC(CCC)C(=O)O  Papain (Carica papaya) (UniProt P00784)  inactive
 6  NCCCC(N)(C(=O)O)C(F)F (stereo not drawn)  Papain (Carica papaya) (UniProt P00784)  inactive
 7       NS(=O)(=O)c1cc2c(cc1Cl)NC=NS2(=O)=O  Papain (Carica papaya) (UniProt P00784)  inactive
 8  Cc1cc2c(C(C)C)c(O)c(O)c(C=O)c2c(O)c1-c1c(C)cc2c(C(C)C)c(O)c(O)c(C=O)c2c1O  Papain (Carica papaya) (UniProt P00784)    active
 9  CCC(C)N(C)C(=O)c1cc2ccccc2c(-c2ccccc2Cl)n1 (stereo not drawn)  Papain (Carica papaya) (UniProt P00784)  inactive
10                         NCCc1ccc(O)c(O)c1  Papain (Carica papaya) (UniProt P00784)  inactive
11            Cc1[nH]c(=O)c(C#N)cc1-c1ccncc1  Papain (Carica papaya) (UniProt P00784)  inactive
12  O=C(Nc1nc2ccccc2n1CCN1CCOCC1)c1cccc([N+](=O)[O-])c1  Papain (Carica papaya) (UniProt P00784)  inactive
13  CC(C)NCC(O)COc1ccc(COCCOC(C)C)cc1 (stereo not drawn)  Papain (Carica papaya) (UniProt P00784)  inactive
14                     CC(=O)Oc1ccccc1C(=O)O  Papain (Carica papaya) (UniProt P00784)  inactive
15  CC(C)(C)NCC(O)c1ccc(O)c(CO)c1 (stereo not drawn)  Papain (Carica papaya) (UniProt P00784)  inactive
16  CCOC(=O)N1CCC(=C2c3ccc(Cl)cc3CCc3cccnc32)CC1  Papain (Carica papaya) (UniProt P00784)  inactive
17  Cc1ccccc1C(OCCN(C)C)c1ccccc1 (stereo not drawn)  Papain (Carica papaya) (UniProt P00784)  inactive
18    O=C1CCc2cc(OCCCCc3nnnn3C3CCCCC3)ccc2N1  Papain (Carica papaya) (UniProt P00784)  inactive
19        Cc1ccc(N(CC2=NCCN2)c2cccc(O)c2)cc1  Papain (Carica papaya) (UniProt P00784)  inactive
20                     O=c1[nH]cnc2[nH]ncc12  Papain (Carica papaya) (UniProt P00784)  inactive
21              Nc1nc2c(ncn2COCCO)c(=O)[nH]1  Papain (Carica papaya) (UniProt P00784)  inactive
22                    CNC[C@H](O)c1cccc(O)c1  Papain (Carica papaya) (UniProt P00784)  inactive
23                      O=NN(CCCl)C(=O)NCCCl  Papain (Carica papaya) (UniProt P00784)  inactive
